ASSAYED SYSTEM: Cannabinoid receptor 2 (Homo sapiens, UniProt P34972)
Sequence (P34972 whole entry): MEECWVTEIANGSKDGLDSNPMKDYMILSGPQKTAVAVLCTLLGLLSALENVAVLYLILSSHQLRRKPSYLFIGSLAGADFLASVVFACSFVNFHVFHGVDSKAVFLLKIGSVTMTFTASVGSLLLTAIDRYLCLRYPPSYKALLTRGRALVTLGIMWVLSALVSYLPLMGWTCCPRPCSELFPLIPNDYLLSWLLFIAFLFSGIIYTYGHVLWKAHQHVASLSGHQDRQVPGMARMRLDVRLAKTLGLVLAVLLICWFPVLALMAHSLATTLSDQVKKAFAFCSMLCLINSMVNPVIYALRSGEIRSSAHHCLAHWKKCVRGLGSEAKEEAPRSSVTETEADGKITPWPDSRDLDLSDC
PROCEDURE TEXT: Agonist activity at human recombinant cannabinoid CB2 receptor expressed in CHO cells by [35S]GTPgammaS binding assay
Classes by EC50: low = under 2000 nM, middle = from 2000 nM up to 3000 nM, high = 3000 nM and over

Past entries and their recorded results:
Clc1ccccc1Nc1ccc2ccccc2n1 : high
FC(F)(F)c1cccc(Nc2ccc3ccccc3n2)c1 : low
O=C(c1cnc(Nc2cccc(C(F)(F)F)c2)c2ccccc12)N1CCOCC1 : low
Clc1cccc(Nc2ccc3ccccc3n2)c1 : middle
FC(F)(F)c1cccc(Nc2nccc3ccccc23)c1 : low
FC(F)(F)c1ccccc1Nc1ccc2ccccc2n1 : high

# bin label for FC(F)(F)c1cccc(Nc2ccnc3ccccc23)c1
high

# bin label for FC(F)(F)c1cccc(Nc2ncc3ccccc3n2)c1
high

# bin label for COc1ccccc1Nc1ccc2ccccc2n1
high

# bin label for c1ccc(Sc2ccc3ccccc3n2)cc1 [2-Phenylsulfanyl-Quinoline]
high

# bin label for FC(F)(F)c1cccc(Nc2cnc3ccccc3n2)c1
high

# bin label for c1ccc2nc(NC3CCCCC3)ccc2c1
high
